Each recorded value in this set is attributed to patent US20050032873A1.

Examples of molecules with documented Emax follow.
Molecular target: 5-HT1A receptor (Homo sapiens)
Sequence (P08908 1-422): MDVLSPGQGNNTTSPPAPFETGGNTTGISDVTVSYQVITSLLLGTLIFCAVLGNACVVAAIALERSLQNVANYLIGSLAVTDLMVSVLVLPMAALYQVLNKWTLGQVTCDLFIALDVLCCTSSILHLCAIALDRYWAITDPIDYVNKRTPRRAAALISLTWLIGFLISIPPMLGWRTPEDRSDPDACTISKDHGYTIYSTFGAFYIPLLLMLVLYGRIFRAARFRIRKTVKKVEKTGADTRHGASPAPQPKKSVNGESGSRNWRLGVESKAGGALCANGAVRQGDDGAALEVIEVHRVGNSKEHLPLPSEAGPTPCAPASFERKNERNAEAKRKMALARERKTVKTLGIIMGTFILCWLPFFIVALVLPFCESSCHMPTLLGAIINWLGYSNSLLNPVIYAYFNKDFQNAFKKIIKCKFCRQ
Assay: cAMP accumulation assay, 5-HT1A function
Type: cell-based
Settings: in brackets after EC50 or IC50; read-out: 5-HT1A Function cAMP (Emax)

MOLECULE	Emax / %
CNC(=O)c1ccc(F)c2c1CC(N(CCc1c[nH]c3ccc(F)cc13)CC1CC1)CO2 (stereo not drawn)	0
NC(=O)c1ccc(F)c2c1CC(N(CC1CCc3[nH]c4ccc(F)cc4c3C1)C1CCC1)CO2 (single isomer, unassigned; (+)) [Compound 174b]	0
NC(=O)c1ccc(F)c2c1CC(N(CCCCc1c[nH]c3ccc(F)cc13)CC1CC1)CO2 (stereo not drawn)	0
NC(=O)c1ccc(F)c2c1CC(N(CCCc1c[nH]c3c(F)cc(F)cc13)C1CCC1)CO2 (single isomer, unassigned; (-))	0
NC(=O)c1ccc(F)c2c1CC(N(CCCc1c[nH]c3ccc(F)cc13)CC1CC1)CO2 (stereo not drawn)	0
NC(=O)c1cccc2c1CC(N(CCCc1c[nH]c3ccc(F)cc13)C1CCC1)CO2 (stereo not drawn)	81
CCCN(CCCc1c[nH]c2ccc(F)cc12)C1CCc2c(F)ccc(OC)c2C1 (stereo not drawn)	83
NC(=O)c1ccc(F)c2c1C[C@@H](N(CC1CC1)CC1CCc3[nH]c4ccc(F)cc4c3C1)CO2 (single isomer, unassigned; (-)) [Compound 178a]	0
CCCN(CCCCc1c[nH]c2ccc(F)cc12)C1COc2c(F)ccc(C(=O)NC)c2C1 (stereo not drawn)	0
NC(=O)c1ccc(F)c2c1CC(NCCCc1c[nH]c3ccc(Cl)cc13)CO2 (stereo not drawn)	67.5
CCCN(CCCc1c[nH]c2ccc(F)cc12)C1COc2c(F)ccc(C(N)=O)c2C1 (single isomer, unassigned; (-)) [Compound 2a]	77.5
COc1ccc2[nH]cc(CCCN(C3CCC3)C3COc4c(F)ccc(C(N)=O)c4C3)c2c1 (stereo not drawn)	0
O=C(NCC1CC1)c1cccc2c1CC(N(CCCc1c[nH]c3c(F)cc(F)cc13)C1CCC1)CO2 (stereo not drawn)	100
CNC(=O)c1ccc(F)c2c1CC(N(CCc1c[nH]c3ccc(F)cc13)C1CCC1)CO2 (stereo not drawn)	0
CCCN(CCCCc1coc2c(OC)cccc12)[C@H]1COc2c(F)ccc(C(N)=O)c2C1	0
CNC(=O)c1ccc(F)c2c1CC(N(CCCc1c[nH]c3ccc(F)cc13)C1CCC1)CO2 (stereo not drawn)	0
CCN(CCCCn1ccc2cccc(F)c21)C1COc2c(F)ccc(C(N)=O)c2C1 (stereo not drawn)	77.5
NC(=O)c1ccc(F)c2c1CC(N(CCCCn1ccc3ccc(F)cc31)CC1CC1)CO2 (stereo not drawn)	58
CC(Cc1c[nH]c2ccc(F)cc12)CN(CC1CC1)[C@H]1COc2c(F)ccc(C(N)=O)c2C1 (single isomer, unassigned) [Compound 155a]	0
NC(=O)c1ccc(F)c2c1CC(N(CCCc1c[nH]c3ccc(F)cc13)C1CCC1)CO2 (single isomer, unassigned; (+)) [Compound 4a]	0
CCN(CCCCc1coc2c(OC)cccc12)C1COc2c(F)ccc(C(N)=O)c2C1 (stereo not drawn)	0
